Each recorded value in this set is attributed to paper PMC5540273.

Test system: IRAK1;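 further: KINOMEscan kinase panel screen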
Test Settings: concentration: 1 μM, replicates: in singlicate; n = 1
Values of %Inh greater than or equal to 9% map to TRUE; values below map to FALSE.

INSERT INTO results (compound, assigned_category) VALUES
  ('c1ccc(-c2ccnc3[nH]ccc23)cc1 [SB-693578]', 'TRUE'),
  ('COc1cccc(NC(=O)Nc2ccc(C)c(-c3ccc(C(=O)Nc4ccncc4)cc3)c2)c1 [GSK1398474]', 'FALSE'),
  ('CCn1c(-c2c(N)noc2C)nc2cnccc21 [SB-737856]', 'TRUE'),
  ('COc1cc2ncnc(Nc3cccc(Br)c3)c2cc1OC.Cl [GI230329]', 'TRUE'),
  ('CN1c2ccc(-c3ccc(C(N)=O)cc3)cc2-c2[nH]ncc2S1(=O)=O', 'FALSE');

Consider now this further compound.
Dear colleague, could you confirm whether COc1ccc(CSc2nnc(-c3ccc4c(c3)CCO4)o2)cc1 has %Inh at or above 9%?
FALSE
